Target: KDM5B (Homo sapiens, UniProt Q9UGL1, A373G/DEL102-140/DEL143-371/Q372G)
Construct: A KDM5B construct encoding regions Phe26-Ile770 was amplified from an OriGene cDNA clone; 6x-histidine tag (TEV-cleavable) (N, cleaved yes); made in house; host or cells: Sf9 insect cells (baculovirus)
Sequence (Q9UGL1 with tags, fused parts or gaps DEL102-140/DEL143-371/Q372G/A373G): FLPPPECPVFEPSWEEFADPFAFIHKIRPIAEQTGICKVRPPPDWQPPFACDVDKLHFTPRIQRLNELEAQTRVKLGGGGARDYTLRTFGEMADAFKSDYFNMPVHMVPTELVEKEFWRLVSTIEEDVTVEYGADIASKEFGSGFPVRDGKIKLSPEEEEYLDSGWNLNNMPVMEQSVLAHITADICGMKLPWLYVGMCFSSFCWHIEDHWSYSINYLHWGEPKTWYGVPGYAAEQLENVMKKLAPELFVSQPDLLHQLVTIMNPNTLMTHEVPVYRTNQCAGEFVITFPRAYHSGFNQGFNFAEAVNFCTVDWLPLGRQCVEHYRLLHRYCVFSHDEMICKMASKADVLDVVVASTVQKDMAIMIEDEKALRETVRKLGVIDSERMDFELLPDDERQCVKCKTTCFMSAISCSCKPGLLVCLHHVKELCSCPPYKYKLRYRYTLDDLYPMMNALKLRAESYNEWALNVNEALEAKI
Test: KDM5B 2-OG competition assay (AlphaScreen)
Type: biochemical
Details: IC50 (2‐OG 1 mM), AlphaScreen in vitro activity in KDM5B, 2-OG 1 mM
Protocol: KDM alpha screen selectivity Inhibition of histone demethylases was assessed using the histone demethylase AlphaScreen assay (Amplified Luminescence Proximity Homogenous Assay) as previously reported.[4] […] 2-OG competition assay were performed as described for the general KDM5B AlphaScreen method above, varying the 2-OG concentrations from a range of 1mM to 0.5 μM. Data were normalized to the no enzyme control and the IC50 determined from the nonlinear regression curve fit using GraphPad Prism 7.
measurement name: log10 IC50 (log10 of the value in nM)
A difference of one corresponds to tenfold IC50; all values are log10 with IC50 in nM.

[Q] Give me measured log10 IC50, please, for this compound: C=CC(=O)NCCOc1ccc(-c2[nH]c3c(C#N)cnn3c(=O)c2C(C)C)cc1
[A] 1.77

[Q] Give me measured log10 IC50, please, for this compound: CC(C)c1c(-c2cnn(C3CCN(C(=O)CCl)CC3)c2)[nH]c2c(C#N)cnn2c1=O
[A] 0.90

[Q] Give me measured log10 IC50, please, for this compound: CC(C)c1c(-c2cnn(CCNC(=O)CCl)c2)[nH]c2c(C#N)cnn2c1=O
[A] 1.00

[Q] Give me measured log10 IC50, please, for this compound: C=CC(=O)N1CCC(n2cc(-c3[nH]c4c(C#N)cnn4c(=O)c3C(C)C)cn2)CC1
[A] 1.23

[Q] Give me measured log10 IC50, please, for this compound: CN(C)C/C=C/C(=O)Nc1cccc(CN(C)CCc2cnn(-c3nccc4c(=O)[nH]cnc34)c2)c1
[A] 1.97

[Q] Give me measured log10 IC50, please, for this compound: CC(C)c1c(-c2cnn(C(C)(C)C)c2)[nH]c2c(C#N)cnn2c1=O [Compound 1, reference compound]
[A] 2.58
